Molecular target: T1, biotinylated human B7-H7 protein (Acro Biosystems, B77-H82F5) (human, UniProt Q9UM44 23-344, biotinylated)
T1 construct: Bought soluble protein; also called biotin-B7H7 protein
T1 sequence (looked up): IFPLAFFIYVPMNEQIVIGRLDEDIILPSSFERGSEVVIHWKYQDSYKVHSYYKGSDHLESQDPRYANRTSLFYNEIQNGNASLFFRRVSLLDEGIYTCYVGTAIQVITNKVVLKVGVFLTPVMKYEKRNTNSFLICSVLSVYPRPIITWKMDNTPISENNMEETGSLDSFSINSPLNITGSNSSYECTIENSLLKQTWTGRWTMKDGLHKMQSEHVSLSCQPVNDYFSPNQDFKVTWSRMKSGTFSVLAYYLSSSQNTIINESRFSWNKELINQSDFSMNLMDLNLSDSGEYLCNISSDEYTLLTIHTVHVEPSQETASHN
Assay: BLI epitope competition on SA-captured biotinylated B7-H7; competitor (first antibody) PR003249
parameter: Competitive inhibition rate (%)
Please respond with the number in % and leave the unit unwritten.

Fill in the blank: the reported Competitive inhibition rate (%) of PR003265 (antibody, human IgG1, kappa, V domains shown, Human IgG1; also called 78G8B3) VH: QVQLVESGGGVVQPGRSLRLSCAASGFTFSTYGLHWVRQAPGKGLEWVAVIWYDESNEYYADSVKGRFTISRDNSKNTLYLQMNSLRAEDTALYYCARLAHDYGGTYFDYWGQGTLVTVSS VL: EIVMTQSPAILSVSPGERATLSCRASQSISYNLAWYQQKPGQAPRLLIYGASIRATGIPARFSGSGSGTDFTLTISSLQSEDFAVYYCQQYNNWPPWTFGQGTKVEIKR is ____.
106

Fill blank: measured Competitive inhibition rate (%) of the binder PR003262 (antibody, human IgG1, kappa, V domains shown, Human IgG1; also called 77D5A4) VH: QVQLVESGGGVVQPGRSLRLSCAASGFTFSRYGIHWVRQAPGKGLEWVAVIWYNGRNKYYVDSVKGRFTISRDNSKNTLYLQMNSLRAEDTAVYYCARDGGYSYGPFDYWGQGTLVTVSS VL: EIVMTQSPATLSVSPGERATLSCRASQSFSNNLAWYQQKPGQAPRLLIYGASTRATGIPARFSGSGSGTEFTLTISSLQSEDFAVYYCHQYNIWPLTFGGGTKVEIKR is ____.
-2.6

Reported Competitive inhibition rate (%), binder PR003252 (antibody, human IgG1, kappa, V domains shown, Human IgG1; also called 53C12D4) VH: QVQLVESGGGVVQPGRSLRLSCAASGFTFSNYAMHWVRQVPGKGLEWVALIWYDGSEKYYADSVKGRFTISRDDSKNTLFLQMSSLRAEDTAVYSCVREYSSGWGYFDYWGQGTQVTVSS VL: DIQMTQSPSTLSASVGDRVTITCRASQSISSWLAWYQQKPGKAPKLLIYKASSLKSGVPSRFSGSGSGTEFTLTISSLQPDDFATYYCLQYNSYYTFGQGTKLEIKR : ____
107

// Competitive inhibition rate (%) lookup, key: PR003263 (antibody, human IgG1, kappa, V domains shown, Human IgG1; also called 77E6C4) VH: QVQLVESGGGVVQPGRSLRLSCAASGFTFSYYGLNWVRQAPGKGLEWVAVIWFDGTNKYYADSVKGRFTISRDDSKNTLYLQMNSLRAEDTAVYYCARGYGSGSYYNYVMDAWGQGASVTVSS VL: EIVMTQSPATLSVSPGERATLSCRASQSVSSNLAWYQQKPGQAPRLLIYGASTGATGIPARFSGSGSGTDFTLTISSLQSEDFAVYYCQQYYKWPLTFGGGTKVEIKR
-0.324
